# target.or.test.system: mutant HIV reverse transcriptase (K103N mutation) (Human immunodeficiency virus type 1 group M subtype B, UniProt P04585, K690N)
# Construct: mutations that occur in the reverse transcriptase segment of the pol gene; made in house
# assay.protocol: Analogous RT inhibition assay, K103N mutant
# Type: biochemical
pIC50: −log10 of the molar value.
# pIC50 per record follows
quantity.name: pIC50

{"columns": ["molecule", "quantity.name", "observed.value"],
 "data": [
  ["CN(C)CCCNC(=O)Nc1[nH]c2ccc(Br)cc2c1S(=O)(=O)N1CCCC1 [Example 94]", "pIC50", "> 6.00"],
  ["O=C(CCOc1ccccc1)Nc1[nH]c2ccc(Cl)cc2c1S(=O)(=O)c1ccccc1 [Example 8]", "pIC50", "< 4.70"],
  ["CCC(C)C(=O)Nc1[nH]c2ccc(Cl)cc2c1S(=O)(=O)c1ccccc1 (stereo not shown) [Example 26]", "pIC50", "4.70 to 6.00"],
  ["CCNCC(=O)Nc1[nH]c2ccc(Cl)cc2c1S(=O)(=O)c1ccccc1 [Example 21]", "pIC50", "> 6.00"]
]}

----------
Attribute: pIC50
# target.or.test.system: mutant HIV reverse transcriptase (K103N mutation) (Human immunodeficiency virus type 1 group M subtype B, UniProt P04585, K690N)
# Construct: mutations that occur in the reverse transcriptase segment of the pol gene; made in house
# assay.protocol: Analogous RT inhibition assay, K103N mutant
# Type: biochemical
pIC50: −log10 of the molar value.
quantity.name: pIC50

{"columns": ["molecule", "observed.value"],
 "data": [
  ["O=C(NCCCc1ccccc1)Nc1[nH]c2ccc(Br)cc2c1S(=O)(=O)N1CCCC1", "> 6.00"],
  ["O=C(Nc1ccccc1F)Nc1[nH]c2ccc(Cl)cc2c1S(=O)(=O)c1ccccc1", "> 6.00"],
  ["CO[C@@](C(=O)Nc1[nH]c2ccc(Cl)cc2c1S(=O)(=O)c1ccccc1)(c1ccccc1)C(F)(F)F", "> 6.00"],
  ["CC(C)(C)CCNC(=O)Nc1[nH]c2ccc(Br)cc2c1S(=O)(=O)N1CCCC1", "< 4.70"],
  ["CC(C)C(=O)Nc1[nH]c2ccc(Cl)cc2c1S(=O)(=O)c1ccccc1", "4.70 to 6.00"],
  ["O=C(Nc1[nH]c2ccc(Cl)cc2c1S(=O)(=O)c1ccccc1)C1CC1", "> 6.00"],
  ["O=C(Nc1ccc(F)cc1)Nc1[nH]c2ccc(Cl)cc2c1S(=O)(=O)c1ccccc1", "< 4.70"],
  ["O=C(Nc1[nH]c2ccc(Cl)cc2c1S(=O)(=O)c1ccccc1)C1COc2ccccc2O1 (centres unmarked)", "> 6.00"]
]}

----------
# target.or.test.system: mutant HIV reverse transcriptase (Y181C mutation) (Human immunodeficiency virus type 1 group M subtype B, UniProt P04585, Y768C)
# Construct: mutations that occur in the reverse transcriptase segment of the pol gene; made in house
# assay.protocol: Analogous RT inhibition assay, Y181C mutant
# Assay type: biochemical

{"columns": ["molecule", "IC50"],
 "data": [
  ["CC(C)C(=O)Nc1[nH]c2ccc(Cl)cc2c1S(=O)(=O)c1ccccc1", "1000 to 20000 nM"],
  ["O=C(Nc1[nH]c2ccc(Cl)cc2c1S(=O)(=O)c1ccccc1)C1CC1", "1000 to 20000 nM"],
  ["O=C(NCc1ccccc1O)Nc1[nH]c2ccc(Br)cc2c1S(=O)(=O)N1CCCC1", "> 20000 nM"],
  ["O=C(NCc1cncs1)Nc1[nH]c2ccc(Br)cc2c1S(=O)(=O)N1CCCC1", "1000 to 20000 nM"],
  ["CCNCC(=O)Nc1[nH]c2ccc(Cl)cc2c1S(=O)(=O)c1ccccc1", "< 1000 nM"],
  ["CC(=O)OCC(=O)Nc1[nH]c2ccc(Cl)cc2c1S(=O)(=O)c1ccccc1", "< 1000 nM"],
  ["O=C(Nc1[nH]c2ccc(Br)cc2c1S(=O)(=O)N1CCCC1)NC1CCCC1", "> 20000 nM"],
  ["O=C(CCOc1ccccc1)Nc1[nH]c2ccc(Cl)cc2c1S(=O)(=O)c1ccccc1", "> 20000 nM"],
  ["O=C(Nc1[nH]c2ccc(Cl)cc2c1S(=O)(=O)c1ccccc1)C1Cc2ccccc2O1 (centres unmarked)", "< 1000 nM"],
  ["O=C(NCc1cccnc1)Nc1[nH]c2ccc(Br)cc2c1S(=O)(=O)N1CCCC1", "1000 to 20000 nM"],
  ["CCC(C)C(=O)Nc1[nH]c2ccc(Cl)cc2c1S(=O)(=O)c1ccccc1 (centres unmarked)", "< 1000 nM"],
  ["O=C(NCc1cccc(Cl)c1)Nc1[nH]c2ccc(Br)cc2c1S(=O)(=O)N1CCCC1", "1000 to 20000 nM"],
  ["O=C(Nc1ccc(F)cc1)Nc1[nH]c2ccc(Cl)cc2c1S(=O)(=O)c1ccccc1", "> 20000 nM"],
  ["O=C(Nc1[nH]c2ccc(Cl)cc2c1S(=O)(=O)c1ccccc1)C1COc2ccccc2O1 (centres unmarked)", "< 1000 nM"],
  ["O=C(CNCc1cscn1)Nc1[nH]c2ccc(Cl)cc2c1S(=O)(=O)c1ccccc1", "< 1000 nM"],
  ["O=C(NCc1ccccc1)Nc1[nH]c2ccc(Br)cc2c1S(=O)(=O)N1CCCC1", "< 1000 nM"],
  ["O=C(NCc1ccccn1)Nc1[nH]c2ccc(Br)cc2c1S(=O)(=O)N1CCCC1", "1000 to 20000 nM"]
]}

// provenance: patent US20100179122A1
